assayed_target: T1, Caspase-9 (UniProt P55211 1-416, limits assumed)
T1 sequence (looked up): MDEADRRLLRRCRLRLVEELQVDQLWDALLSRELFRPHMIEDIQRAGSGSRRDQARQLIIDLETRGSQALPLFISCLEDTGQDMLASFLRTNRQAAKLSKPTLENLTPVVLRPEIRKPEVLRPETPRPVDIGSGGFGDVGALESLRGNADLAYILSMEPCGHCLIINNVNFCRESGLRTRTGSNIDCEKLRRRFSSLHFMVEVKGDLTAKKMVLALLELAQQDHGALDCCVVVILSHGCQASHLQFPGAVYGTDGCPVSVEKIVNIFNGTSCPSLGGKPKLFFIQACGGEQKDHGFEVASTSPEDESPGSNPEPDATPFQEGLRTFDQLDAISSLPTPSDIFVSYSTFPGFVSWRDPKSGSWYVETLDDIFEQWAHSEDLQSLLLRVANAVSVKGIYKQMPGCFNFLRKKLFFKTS
assay_info: cell-based or functional assay
Numbered stars: 1 amine (or outer) side, 2 acyl side, 3 side chain; on linkers, the order of the positions; unused ones are H or OH. Square brackets hold non-standard residues; d marks the D form. * marks the point of attachment. CH═CH‑CON(CH3)CH2CH2Ph = CN(CCc1ccccc1)C(=O)/C=C/*; AAsp = aza-Asp, O=C(N(CC(=O)[*:3])N[*:1])[*:2]; CH═CH‑COOEt = CCOC(=O)/C=C/*; Cbz = O=C(OCc1ccccc1)*
reported_metric: k2 (M⁻¹ s⁻¹)
Write the number in M⁻¹ s⁻¹ without appending the unit.

binder="Cbz-Val-[AAsp]-{CH═CH‑COOEt} [Cbz-Val-AAsp-CH═CH-COOEt]" unit_abbrev="M⁻¹ s⁻¹" assay_value=5240

With those in mind, consider the next binder.
Fill blank: measured k2 of the binder Cbz-DEV[AAsp]-{CH═CH‑CON(CH3)CH2CH2Ph} (SMILES CC(C)[C@H](NC(=O)[C@H](CCC(=O)O)NC(=O)[C@H](CC(=O)O)NC(=O)OCc1ccccc1)C(=O)NN(CC(=O)O)C(=O)/C=C/C(=O)N(C)CCc1ccccc1) [Cbz-Asp-Glu-Val-AAsp-CH═CH-CON(CH3)CH2CH2Ph] is ____. 425
